molecular target: UniProt:Q13639; test: Agonist activity at human 5HT4C receptor expressed in HEK293 cells assessed as accumulation of cAMP by flash plate adenylyl cyclase activation assay
Sequence (Q13639 whole entry): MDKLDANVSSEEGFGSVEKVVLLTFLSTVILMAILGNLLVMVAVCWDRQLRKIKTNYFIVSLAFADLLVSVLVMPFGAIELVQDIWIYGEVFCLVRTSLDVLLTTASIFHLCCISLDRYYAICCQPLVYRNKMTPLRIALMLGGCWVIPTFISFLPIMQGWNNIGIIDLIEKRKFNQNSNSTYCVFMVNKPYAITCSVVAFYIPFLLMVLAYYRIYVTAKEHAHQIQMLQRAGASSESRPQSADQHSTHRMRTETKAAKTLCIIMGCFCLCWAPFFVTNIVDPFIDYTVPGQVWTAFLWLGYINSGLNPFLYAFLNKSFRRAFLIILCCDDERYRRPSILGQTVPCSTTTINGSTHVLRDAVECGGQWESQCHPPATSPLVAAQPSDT
pEC50: −log10 of the molar value.
Recorded pEC50 values for a group of molecules are listed next.
quantity-measured: pEC50

{"columns": ["line-notation", "observed-result"],
 "data": [
  ["CC(C)n1c(=O)c(C(=O)N[C@H]2C[C@H]3CC[C@@H](C2)N3CCCN2CCOCC2)cc2ccccc21", 8.60],
  ["COc1cc(N)c(Cl)cc1C(=O)NC1CCN(CCCCCN2CCN(S(C)(=O)=O)CC2)CC1", 7.90],
  ["CC(C)n1c(=O)c(C(=O)N[C@H]2C[C@H]3CC[C@@H](C2)N3CCCCCN(C)CCc2c[nH]c3ccccc23)cc2ccccc21", 9.20],
  ["CC(C)n1c(=O)c(C(=O)N[C@H]2C[C@H]3CC[C@@H](C2)N3CCCCCO)cc2ccccc21", 7.60]
]}

This collection of values is drawn from ChEMBL document CHEMBL1153520.
